biological target: BRD9 (Homo sapiens, UniProt Q9H8M2); experiment: BRD9 degradation, HiBiT-BRD9 KI HEK293 (LgBiT) cells, NanoGlo Lytic Endpoint assay (Assay Protocol 1); assay type: cell-based; conditions: HEK293; Assay protocol 1; BRD9 degradation; read-out: Dmax
Sequence (Q9H8M2 whole entry): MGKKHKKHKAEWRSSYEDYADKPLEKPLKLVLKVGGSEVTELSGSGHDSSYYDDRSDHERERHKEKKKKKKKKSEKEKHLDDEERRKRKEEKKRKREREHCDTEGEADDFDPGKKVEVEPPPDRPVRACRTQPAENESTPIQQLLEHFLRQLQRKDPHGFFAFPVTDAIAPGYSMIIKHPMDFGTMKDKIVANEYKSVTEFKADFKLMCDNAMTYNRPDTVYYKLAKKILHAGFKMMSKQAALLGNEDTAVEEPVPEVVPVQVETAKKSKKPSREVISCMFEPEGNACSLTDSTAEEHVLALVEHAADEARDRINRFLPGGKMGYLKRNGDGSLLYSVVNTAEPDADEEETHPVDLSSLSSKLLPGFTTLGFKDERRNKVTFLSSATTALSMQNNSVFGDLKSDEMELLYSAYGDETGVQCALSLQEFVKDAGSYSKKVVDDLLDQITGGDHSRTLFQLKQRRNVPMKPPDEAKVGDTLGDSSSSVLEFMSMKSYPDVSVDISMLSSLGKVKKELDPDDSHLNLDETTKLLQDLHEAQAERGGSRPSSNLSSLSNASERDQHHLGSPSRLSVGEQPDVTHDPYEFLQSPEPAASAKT
ENDPOINT NAME: Dmax

These recorded examples may help you get a feel for the data.
COc1cc(-c2cn(C)c(=O)c(C)c2C)cc(OC)c1CN(C)Cc1cccc2c1CCN(C(=O)/C(C#N)=C/c1cccc(C(F)(F)F)n1)C2C (mixture of isomers) [Compound B15] : > 75%
COc1cc(-c2cn(C)c(=O)c(C)c2C)cc(OC)c1CN1CCN(Cc2cccc3c2CCN(C(=O)/C(C#N)=C/c2cccc(C)n2)C3C)CC1 (mixture of isomers) [Compound B24] : 40 to 70%

# ---- query compound ----
compound COc1cc(-c2cn(C)c(=O)c(C)c2C)cc(OC)c1CN1CCN(Cc2cccc3c2CCN(C(=O)/C(C#N)=C/C2(C)CCOCC2)C3C)C2(CC2)C1 (mixture of isomers) [Compound B123] , Dmax observed: > 75%
